Test system: infants at 24 months
Test: Associations of maternal plasma carotenoids concentrations with Bayley Scales of Infant and Toddler Development-III (BSID-III) scores, GUSTO cohort, linear regression
Type: in vivo, human
Conditions: Model 3 (also adjusted for potential mediators); per SD increment in log-transformed maternal plasma concentration; 24 months
Protocol: The Bayley Scales of Infant and Toddler Development, 3rd edition (BSID-III) 2006 was administered to infants at 24 (±1) months, in their homes when infants were likely to be alert. […] A total of 1247 pregnant women participated at baseline. The present analysis included pregnant women who had singleton live births (n=1237), in whom plasma carotenoids concentrations were analyzed (n=701), and their offspring completed neurocognitive assessments at 24 months (n=361). […]
Listed below: Fine motor β (95% CI) values for each entry.

{"molecule": "CC1=CCCC(C)(C)C1/C=C/C(C)=C/C=C/C(C)=C/C=C/C=C(C)/C=C/C=C(C)/C=C/C1=C(C)CCCC1(C)C (stereo not drawn)", "Fine motor β (95% CI) (SD)": 0.05}
{"molecule": "CC1=C(/C=C/C(C)=C/C=C/C(C)=C/C=C/C=C(C)/C=C/C=C(C)/C=C/C2=C(C)C[C@@H](O)CC2(C)C)C(C)(C)CCC1", "Fine motor β (95% CI) (SD)": 0.15}
{"molecule": "CC1=C[C@H](O)CC(C)(C)[C@H]1/C=C/C(C)=C/C=C/C(C)=C/C=C/C=C(C)/C=C/C=C(C)/C=C/C1=C(C)C[C@@H](O)CC1(C)C", "Fine motor β (95% CI) (SD)": "−0.04"}

###

Tested on: infants at 24 months
Assay: Associations of maternal plasma carotenoids concentrations with Bayley Scales of Infant and Toddler Development-III (BSID-III) scores, GUSTO cohort, linear regression
Assay type: in vivo, human
Settings: Model 1; per SD increment in log-transformed maternal plasma concentration; BSID-III at 24 months; n = 361
measured metric: Fine motor β (95% CI) (SD)

{"compound": "CC(C)=CCC/C(C)=C/C=C/C(C)=C/C=C/C(C)=C/C=C/C=C(C)/C=C/C=C(C)/C=C/C=C(\\C)CCC=C(C)C", "test target": "infants at 24 months", "measured metric": "Fine motor β (95% CI)", "measured number": 0.04}
{"compound": "CC1=C(/C=C/C(C)=C/C=C/C(C)=C/C=C/C=C(C)/C=C/C=C(C)/C=C/C2=C(C)C[C@@H](O)CC2(C)C)C(C)(C)C[C@H](O)C1", "test target": "infants at 24 months", "measured metric": "Fine motor β (95% CI)", "measured number": 0.04}
{"compound": "CC1=C(/C=C/C(C)=C/C=C/C(C)=C/C=C/C=C(C)/C=C/C=C(C)/C=C/C2=C(C)CCCC2(C)C)C(C)(C)CCC1", "test target": "infants at 24 months", "measured metric": "Fine motor β (95% CI)", "measured number": 0.14}
{"compound": "CC1=CCCC(C)(C)C1/C=C/C(C)=C/C=C/C(C)=C/C=C/C=C(C)/C=C/C=C(C)/C=C/C1=C(C)CCCC1(C)C (stereo not drawn)", "test target": "infants at 24 months", "measured metric": "Fine motor β (95% CI)", "measured number": 0.08}
{"compound": "CC1=C(/C=C/C(C)=C/C=C/C(C)=C/C=C/C=C(C)/C=C/C=C(C)/C=C/C2=C(C)C[C@@H](O)CC2(C)C)C(C)(C)CCC1", "test target": "infants at 24 months", "measured metric": "Fine motor β (95% CI)", "measured number": 0.17}
{"compound": "CC1=C[C@H](O)CC(C)(C)[C@H]1/C=C/C(C)=C/C=C/C(C)=C/C=C/C=C(C)/C=C/C=C(C)/C=C/C1=C(C)C[C@@H](O)CC1(C)C", "test target": "infants at 24 months", "measured metric": "Fine motor β (95% CI)", "measured number": 0.01}

###

Tested on: infants at 24 months
Test: Associations of maternal plasma carotenoids concentrations with Bayley Scales of Infant and Toddler Development-III (BSID-III) scores, GUSTO cohort, linear regression
Assay type: in vivo, human
Conditions: Model 3 (also adjusted for potential mediators); per SD increment in log-transformed maternal plasma concentration; 24 months
Description: The Bayley Scales of Infant and Toddler Development, 3rd edition (BSID-III) 2006 was administered to infants at 24 (±1) months, in their homes when infants were likely to be alert. […] A total of 1247 pregnant women participated at baseline. The present analysis included pregnant women who had singleton live births (n=1237), in whom plasma carotenoids concentrations were analyzed (n=701), and their offspring completed neurocognitive assessments at 24 months (n=361). […]

{"compound": "CC1=C(/C=C/C(C)=C/C=C/C(C)=C/C=C/C=C(C)/C=C/C=C(C)/C=C/C2=C(C)C[C@@H](O)CC2(C)C)C(C)(C)C[C@H](O)C1 [Zeaxanthin, zeaxanthin]", "Fine motor β (95% CI)": "0.05 SD"}
{"compound": "CC(C)=CCC/C(C)=C/C=C/C(C)=C/C=C/C(C)=C/C=C/C=C(C)/C=C/C=C(C)/C=C/C=C(\\C)CCC=C(C)C [Lycopene, lycopene]", "Fine motor β (95% CI)": "0.02 SD"}
{"compound": "CC1=C(/C=C/C(C)=C/C=C/C(C)=C/C=C/C=C(C)/C=C/C=C(C)/C=C/C2=C(C)CCCC2(C)C)C(C)(C)CCC1 [β-carotene]", "Fine motor β (95% CI)": "0.10 SD"}

###

Receptive language β (95% CI) values by entry
Test system: infants at 24 months
Experiment: Associations of maternal plasma carotenoids concentrations with Bayley Scales of Infant and Toddler Development-III (BSID-III) scores, GUSTO cohort, linear regression
Type: in vivo, human
Settings: Model 1; per SD increment in log-transformed maternal plasma concentration; BSID-III at 24 months; n = 361

{"compound": "CC1=C(/C=C/C(C)=C/C=C/C(C)=C/C=C/C=C(C)/C=C/C=C(C)/C=C/C2=C(C)CCCC2(C)C)C(C)(C)CCC1 [β-carotene]", "unit": "SD", "Receptive language β (95% CI)": 0.23}
{"compound": "CC1=C[C@H](O)CC(C)(C)[C@H]1/C=C/C(C)=C/C=C/C(C)=C/C=C/C=C(C)/C=C/C=C(C)/C=C/C1=C(C)C[C@@H](O)CC1(C)C [Lutein, lutein]", "unit": "SD", "Receptive language β (95% CI)": 0.08}
{"compound": "CC1=CCCC(C)(C)C1/C=C/C(C)=C/C=C/C(C)=C/C=C/C=C(C)/C=C/C=C(C)/C=C/C1=C(C)CCCC1(C)C (stereo not drawn) [α-carotene]", "unit": "SD", "Receptive language β (95% CI)": 0.09}
{"compound": "CC1=C(/C=C/C(C)=C/C=C/C(C)=C/C=C/C=C(C)/C=C/C=C(C)/C=C/C2=C(C)C[C@@H](O)CC2(C)C)C(C)(C)C[C@H](O)C1 [Zeaxanthin, zeaxanthin]", "unit": "SD", "Receptive language β (95% CI)": "−0.10"}
{"compound": "CC(C)=CCC/C(C)=C/C=C/C(C)=C/C=C/C(C)=C/C=C/C=C(C)/C=C/C=C(C)/C=C/C=C(\\C)CCC=C(C)C [Lycopene, lycopene]", "unit": "SD", "Receptive language β (95% CI)": 0.11}
{"compound": "CC1=C(/C=C/C(C)=C/C=C/C(C)=C/C=C/C=C(C)/C=C/C=C(C)/C=C/C2=C(C)C[C@@H](O)CC2(C)C)C(C)(C)CCC1 [β-cryptoxanthin]", "unit": "SD", "Receptive language β (95% CI)": 0.21}
